Protocol notes: Pharmacokinetics in orchidectomized male rats (plasma, Day 14)
Type: in vivo
Condition: rat, ORX male rats, PO, Day 14, 100 mg/kg
Parameter: Cmax (ng/mL)

>>> df
                                   molecule  result_number
0  N#Cc1ccc(N2CCC[C@@H]2[C@@H](O)C(F)(F)F)cc1C(F)(F)F [Compound 102]            321

* * *

Protocol notes: Pharmacokinetics in Sprague Dawley rats, repeat oral administration for 15 days
Type: in vivo, rat
Condition: male, Sprague-Dawley, rat, plasma, po, 10 mg/kg, SD rats, oral gavage once daily, Day 15, 10 mg/kg, Male, n = 2; read-out: AUC24
Parameter: AUC (ng·h/mL)

                                smiles_code  result_number
0  N#Cc1ccc(N2CCC[C@@H]2[C@@H](O)C(F)(F)F)cc1C(F)(F)F           2620
